molecular target: Bifunctional epoxide hydrolase 2 (Homo sapiens); assay: Inhibition of human recombinant soluble epoxide hydrolase at 100 nM by end-point fluorescent assay
Quantity Measured: inhibition (%)
Report only the number, with the unit % understood.

Summary for this compound, O=C(Nc1ccc(Br)cc1)N[C@H]1CC[C@@H](Oc2ccc(F)cc2)CC1 : inhibition is 80

# compound O=C(Nc1ccccc1OC(F)(F)F)N[C@H]1CC[C@@H](Oc2ccc(F)cc2)CC1 ; its inhibition = 2

Notebook: COC(=O)c1cccc(NC(=O)N[C@H]2CC[C@@H](Oc3ccc(F)cc3)CC2)c1 , inhibition read as 72

# compound O=C(Nc1ccc(OC(F)(F)F)cc1)N[C@H]1CC[C@@H](Oc2ccc(F)cc2)CC1 ; its inhibition = 84

In plain terms, COC(=O)c1ccc(NC(=O)N[C@H]2CC[C@@H](Oc3ccc(F)cc3)CC2)cc1 has a documented inhibition of 62

The value of inhibition measured for the compound Cc1cccc(C)c1NC(=O)N[C@H]1CC[C@@H](Oc2ccc(F)cc2)CC1 turned out to be 4

In plain terms, O=C(NC1CCCCCC1)N[C@H]1CC[C@@H](Oc2ccc(F)cc2)CC1 has a documented inhibition of 87

Value of inhibition reported for the compound O=C(Nc1c(Cl)cccc1Cl)N[C@H]1CC[C@@H](Oc2ccc(F)cc2)CC1 is 1

Per the record, CC(C)c1cccc(C(C)C)c1NC(=O)N[C@H]1CC[C@@H](Oc2ccc(F)cc2)CC1 has inhibition of 5
